procedureDetails: Biodistribution in rhesus monkey urine assessed as dose recovered unchanged at 33.3 mg/kg, iv after 8 hrs
Format: ADME, organism-based, Macaca mulatta
Set-up: dose 33.3 mg/kg, route intravenous
assayConditions: read-out: Drug uptake
experimentalReadout: dose excreted at 8 h (%)
// return numeric value only (unit: %, not printed)

Memo: Cc1cn([C@H]2CO[C@@H](CO)O2)c(=O)[nH]c1=O , reported dose excreted at 8 h: 40

* * *

procedureDetails: Volume of distribution at steady state in rhesus monkey at 33.3 mg/kg, iv
Format: ADME, organism-based, Macaca mulatta
Set-up: dose 33.3 mg/kg, route intravenous
assayConditions: in vivo, read-out: Vdss
experimentalReadout: Vd (L/kg)
// return numeric value only (unit: L/kg, not printed)

Memo: Cc1cn([C@H]2CO[C@@H](CO)O2)c(=O)[nH]c1=O , reported Vd: 1.02
